# test.description: Acute toxicity in male CD rats
# Assay type: in vivo
# condition.description: male, CD, rat, in vivo, po
endpoint: LD50 at 14 days (mg/kg)
Please reply with the bare figure in mg/kg and do not write the unit itself.

Task: So what does the record say about LD50 at 14 days for CCCCCCCCCCCCn1ccnc1 [12-(1)-imidazolyl-dodecane] ?
Result: 1000
